target: full length GRK5 (Homo sapiens); construct: 6/2 fold concentrated full length GRK5 (Millipore, #14-714) in reaction buffer is added to each well; purchased Millipore 14-714; test: IC50 determination of compounds inhibiting GRK5 by ADP Glo Kinase Assay technology (Promega); format: biochemical; details: 20 nM GRK5, 18.7 µM ATP, 10 µM casein, 12 concentrations, triplicates, read-out: GRK5 IC50
Sequence (P34947 whole entry): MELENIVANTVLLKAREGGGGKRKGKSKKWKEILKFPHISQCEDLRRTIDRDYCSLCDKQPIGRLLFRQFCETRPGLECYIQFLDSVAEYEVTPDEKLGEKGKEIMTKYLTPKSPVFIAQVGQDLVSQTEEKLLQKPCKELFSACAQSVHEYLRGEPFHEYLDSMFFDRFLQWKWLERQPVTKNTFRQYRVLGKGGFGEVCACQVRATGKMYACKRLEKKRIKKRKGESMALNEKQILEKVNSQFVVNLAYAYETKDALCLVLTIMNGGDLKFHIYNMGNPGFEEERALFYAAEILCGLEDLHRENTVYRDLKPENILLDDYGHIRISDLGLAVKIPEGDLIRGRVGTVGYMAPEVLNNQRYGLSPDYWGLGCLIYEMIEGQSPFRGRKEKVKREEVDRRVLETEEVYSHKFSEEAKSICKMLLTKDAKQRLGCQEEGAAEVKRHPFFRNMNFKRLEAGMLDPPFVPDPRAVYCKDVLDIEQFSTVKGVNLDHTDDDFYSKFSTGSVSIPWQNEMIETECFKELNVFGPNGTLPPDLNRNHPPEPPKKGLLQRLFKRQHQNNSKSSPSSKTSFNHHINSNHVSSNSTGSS
pIC50: −log10 of the molar value.
reported endpoint: pIC50

The following compounds have reported results that may help.
• Cc1[nH]c(/C=C2\C(=O)Nc3ccc(C(=O)N[C@@H]4CCc5ccccc54)cc32)c(C)c1C(=O)N1CCC[C@@H]1CN1CCCC1 = 4.70 to 5.30
• Cc1ccc([C@@H](C)NC(=O)c2ccc3c(c2)/C(=C/Nc2ccc(CN4CCCCC4)cc2)C(=O)N3)cc1 = > 5.30
• Cc1[nH]c(/C=C2\C(=O)Nc3ccc(C(=O)O)cc32)c(C)c1C(=O)NCCN1CCCC1 = > 5.30
• CC[C@@H](NC(=O)c1ccc2c(c1)/C(=C/c1[nH]c(C)c(C(=O)N3CCCCC3)c1C)C(=O)N2)c1ccccc1 = > 5.30
• Cc1[nH]c(/C=C2\C(=O)Nc3ccc(C(=O)N[C@H](C)c4ccccc4)cc32)c(C)c1C(=O)N1CCCCC1 = > 5.30

Answer for every listed entry: what is its pIC50? The entries follow.
1. CC[C@@H](NC(=O)c1ccc2c(c1)/C(=C/Nc1ccc(CN3CCCCC3)cc1)C(=O)N2)c1ccccc1
2. Cc1[nH]c(/C=C2\C(=O)Nc3ccc(C(=O)N[C@H](C)c4cccc(Cl)c4)cc32)c(C)c1C(=O)N1CCCCC1

> 5.30
> 5.30

Answer for every listed entry: what is its pIC50? The entries follow.
1. Cc1[nH]c(/C=C2\C(=O)Nc3ccc(C(=O)N[C@@H](C)c4cccc(Cl)c4)cc32)c(C)c1C(=O)N1CCCCC1
2. CC[C@@H](NC(=O)c1ccc2c(c1)/C(=C/c1[nH]c(C)c(C(=O)N3CCC[C@H]3CN3CCCC3)c1C)C(=O)N2)c1ccccc1

1. < 4.52
2. > 5.30

====

target: full length GRK5 (Homo sapiens); construct: 6/2 fold concentrated full length GRK5 (Millipore, #14-714) in reaction buffer is added to each well; purchased Millipore 14-714; experiment: IC50 determination of compounds inhibiting GRK5 by ADP Glo Kinase Assay technology (Promega); assay type: biochemical; settings: read-out: GRK5 IC50, 20 nM GRK5, 18.7 µM ATP, 10 µM casein, 12 concentrations, triplicates
pIC50: −log10 of the molar value.
reported endpoint: pIC50

Fill in the recorded pIC50 for this compound, with full length GRK5 (Homo sapiens) as test system: COc1ccc([C@@H](C)NC(=O)c2ccc3c(c2)/C(=C/Nc2ccc(CN4CCCCC4)cc2)C(=O)N3)cc1
> 5.30

====

# IC50 measurements, system: GRK5 (Homo sapiens, UniProt P34947)
# Sequence (P34947 whole entry): as above

The following compounds have reported results that may help.
- Cc1[nH]c(/C=C2\C(=O)Nc3ccc(C(=O)N[C@H](C)c4ccccc4)cc32)c(C)c1C(=O)N1CCC[C@H]1CN1CCCC1: < 5 µM
- Cc1[nH]c(/C=C2\C(=O)Nc3ccc(C(=O)N[C@H](C)c4cccc(Cl)c4)cc32)c(C)c1C(=O)N1CCCCC1: < 5 µM
- CC[C@H](NC(=O)c1ccc2c(c1)/C(=C/c1[nH]c(C)c(C(=O)N3CCC[C@H]3CN3CCCC3)c1C)C(=O)N2)c1ccccc1: 5 to 20 µM
- CC[C@H](NC(=O)c1ccc2c(c1)/C(=C/c1[nH]c(C)c(C(=O)N3CCC(N4CCN(C)CC4)CC3)c1C)C(=O)N2)c1ccccc1: > 30 µM
- C[C@@H](c1ccccc1)N(C)C(=O)c1ccc2c(c1)/C(=C/Nc1ccc(CN3CCCCC3)cc1)C(=O)N2: < 5 µM
- COc1ccc([C@H](C)NC(=O)c2ccc3c(c2)/C(=C/c2[nH]c(C)c(C(=O)N4CCCCC4)c2C)C(=O)N3)cc1: > 30 µM
- CCC(NC(=O)c1ccc2c(c1)/C(=C/c1[nH]c(C)c(C(=O)N3CCN(C)CC3)c1C)C(=O)N2)c1ccc(Cl)cc1 (stereo not drawn): < 5 µM
- COc1ccc([C@@H](C)NC(=O)c2ccc3c(c2)/C(=C/Nc2ccc(CN4CCCCC4)cc2)C(=O)N3)cc1: < 5 µM

Quick one: IC50 for CC[C@@H](NC(=O)c1ccc2c(c1)/C(=C/c1[nH]c(C)c(C(=O)N3CCCCC3)c1C)C(=O)N2)c1ccccc1 ?
< 5 µM
